# IC50 listing for each entry below
measured_target: NLRP3 (Homo sapiens, UniProt Q96P20)
Sequence (Q96P20 whole entry): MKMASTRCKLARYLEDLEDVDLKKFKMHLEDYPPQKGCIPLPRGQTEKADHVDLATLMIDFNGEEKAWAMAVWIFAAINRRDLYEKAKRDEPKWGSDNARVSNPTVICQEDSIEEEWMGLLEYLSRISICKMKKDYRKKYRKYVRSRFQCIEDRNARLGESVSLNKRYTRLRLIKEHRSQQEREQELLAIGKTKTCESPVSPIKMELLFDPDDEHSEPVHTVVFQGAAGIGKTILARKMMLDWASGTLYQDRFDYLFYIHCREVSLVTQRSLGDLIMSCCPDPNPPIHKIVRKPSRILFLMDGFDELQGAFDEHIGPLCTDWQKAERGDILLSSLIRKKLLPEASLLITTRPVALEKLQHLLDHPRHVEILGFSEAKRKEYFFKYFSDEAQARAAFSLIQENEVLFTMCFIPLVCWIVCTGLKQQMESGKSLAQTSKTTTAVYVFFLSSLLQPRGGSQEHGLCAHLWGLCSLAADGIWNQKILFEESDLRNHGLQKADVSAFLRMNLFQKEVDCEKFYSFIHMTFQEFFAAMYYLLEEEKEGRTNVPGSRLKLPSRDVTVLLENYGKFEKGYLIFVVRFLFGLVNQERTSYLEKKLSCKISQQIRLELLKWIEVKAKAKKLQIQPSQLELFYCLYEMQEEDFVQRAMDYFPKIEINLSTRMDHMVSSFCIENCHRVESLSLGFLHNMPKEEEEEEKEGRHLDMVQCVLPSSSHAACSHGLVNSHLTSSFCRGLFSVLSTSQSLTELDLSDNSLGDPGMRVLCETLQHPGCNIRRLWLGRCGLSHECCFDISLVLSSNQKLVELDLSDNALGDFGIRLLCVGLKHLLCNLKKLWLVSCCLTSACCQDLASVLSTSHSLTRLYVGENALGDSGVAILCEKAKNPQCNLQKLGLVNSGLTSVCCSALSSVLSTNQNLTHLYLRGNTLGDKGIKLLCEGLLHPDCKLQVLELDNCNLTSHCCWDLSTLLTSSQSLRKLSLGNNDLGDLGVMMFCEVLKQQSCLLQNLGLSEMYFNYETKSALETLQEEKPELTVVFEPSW
protocol_details: THP-1 cells pyroptosis assay
Format: cell-based
Parameters: Seed THP-1 cells (25,000 cells/well) containing 1.0 μg/ml LPS; host or cells: THP-1
setup_conditions: LPS 1.0 μg/ml, nigericin 5 μM, resazurin readout, 10 μM top dose (Example 2: top dose of 30 μM)

Recorded results for 5 compounds are shown here.
CN1CCC2(CCN(S(=O)(=O)c3nnc(Nc4c5c(cc6c4CCC6)CCC5)[nH]3)CC2)C1 [Example 276] : ≤ 500 nM
Cc1ccccc1S(=O)(=O)c1nnc(Nc2c3c(cc4c2CCC4)CCC3)[nH]1 [Example 187] : ≤ 1000 nM
CNC[C@H]1CCN(S(=O)(=O)c2nnc(Nc3c4c(cc5c3CCC5)CCC4)[nH]2)C1 [Example 288] : ≤ 500 nM
CC(C)CCNS(=O)(=O)c1nnc(Nc2c3c(cc4c2CCC4)CCC3)[nH]1 [Example 82] : ≤ 10000 nM
NS(=O)(=O)c1ccccc1S(=O)(=O)c1nnc(Nc2c3c(cc4c2CCC4)CCC3)[nH]1 [Example 325] : ≤ 500 nM

Prompt: Using NLRP3 (Homo sapiens, UniProt Q96P20) as the test system, report measured IC50 of COCC1CCN(S(=O)(=O)c2nnc(Nc3c4c(cc5c3CCC5)CCC4)[nH]2)C1 (centres unmarked) [Example 283] .
Completion: ≤ 5000 nM

Prompt: Report value: IC50, system: NLRP3 (Homo sapiens, UniProt Q96P20), compound: CN1CCN(CCCS(=O)(=O)c2nnc(Nc3c4c(cc5c3CCC5)CCC4)[nH]2)CC1 [Example 51]
Completion: ≤ 5000 nM

Prompt: Provide IC50, system NLRP3 (Homo sapiens, UniProt Q96P20), entry COc1cc(-c2ccc3c(c2Nc2nnc(S(=O)(=O)N4CC[C@H](C(C)(C)O)C4)[nH]2)CCC3)ccn1 [Example 231]
Completion: ≤ 500 nM

Prompt: Please report IC50 with NLRP3 (Homo sapiens, UniProt Q96P20) for item COc1cc(-c2cc(F)cc(C(C)C)c2Nc2nnc(S(=O)(=O)N3CCC4(CCN4C)CC3)[nH]2)ccn1 [Example 249] .
Completion: ≤ 500 nM

Prompt: # return IC50 for CC(c1cc(S(=O)(=O)c2nnc(Nc3c4c(cc5c3CCC5)CCC4)[nH]2)nn1C)N(C)C (centres unmarked) [Example 5] , test system: NLRP3 (Homo sapiens, UniProt Q96P20)
Completion: ≤ 500 nM

Prompt: Given N#Cc1ccccc1S(=O)(=O)c1nnc(Nc2c3c(cc4c2CCC4)CCC3)[nH]1 [Example 185] , report its IC50 on NLRP3 (Homo sapiens, UniProt Q96P20).
Completion: ≤ 500 nM

Prompt: Please report IC50 with NLRP3 (Homo sapiens, UniProt Q96P20) for item CN(C)C1CCN(S(=O)(=O)c2nnc(Nc3c4c(cc5c3CCC5)CCC4)[nH]2)C1 (centres unmarked) [Example 93] .
Completion: ≤ 5000 nM

Prompt: Look up and report IC50, with NLRP3 (Homo sapiens, UniProt Q96P20) as system, for O=S(=O)(c1nnc(Nc2c3c(cc4c2CCC4)CCC3)[nH]1)N1CC2(CCN(CCF)C2)C1 [Example 239]
Completion: ≤ 1000 nM

Prompt: Specify the recorded IC50 for CNC(=O)CS(=O)(=O)c1nnc(Nc2c3c(cc4c2CCC4)CCC3)[nH]1 [Example 68] , system: NLRP3 (Homo sapiens, UniProt Q96P20).
Completion: ≤ 5000 nM

Prompt: # return IC50 of CN(C)C1CCN(S(=O)(=O)c2nnc(Nc3c(-c4ccncc4)ccc4c3CCO4)[nH]2)CC1 [Example 220] (system: NLRP3 (Homo sapiens, UniProt Q96P20))
Completion: ≤ 1000 nM

Prompt: Report its IC50 with NLRP3 (Homo sapiens, UniProt Q96P20) as the test system: CN1CCC(N(C)S(=O)(=O)c2nnc(Nc3c4c(cc5c3CCC5)CCC4)[nH]2)CC1 [Example 90]
Completion: ≤ 10000 nM

Prompt: State, for NLRP3 (Homo sapiens, UniProt Q96P20), measured IC50 of the compound listed here: COc1cc(-c2cc(F)c3c(c2Nc2nnc(S(=O)(=O)N4CC5(CCN(C)C5)C4)[nH]2)CCC3)ccn1 [Example 299]
Completion: ≤ 500 nM

Prompt: Report value: IC50, system: NLRP3 (Homo sapiens, UniProt Q96P20), compound: CC(C)n1ccc(S(=O)(=O)c2nnc(Cc3c4c(cc5c3CCC5)CCC4)[nH]2)n1 [Example 30]
Completion: ≤ 10000 nM

Prompt: Fill in: IC50 on NLRP3 (Homo sapiens, UniProt Q96P20), entry O=S(=O)(c1nnc(Nc2c3c(cc4c2CCC4)CCC3)[nH]1)N1CCC2(CCNC2)CC1 [Example 266]
Completion: ≤ 5000 nM

Prompt: Fetch value of IC50 on NLRP3 (Homo sapiens, UniProt Q96P20) for CC(C)c1cnn(-c2ccncc2)c1Nc1nnc(S(=O)(=O)N2CCC(N(C)C)CC2)[nH]1 [Example 197] .
Completion: ≤ 500 nM

Prompt: Report IC50 on NLRP3 (Homo sapiens, UniProt Q96P20) for this entry: CN(C)C1CCN(S(=O)(=O)c2nnc(Nc3c(-c4ccnc(C5CC5)c4)ccc4c3CCC4)[nH]2)CC1 [Example 199]
Completion: ≤ 500 nM

Prompt: Find the measured IC50 of CC(C)n1ccc(S(=O)(=O)c2nnc(Nc3c(-c4ccncc4)cc(F)c4c3CCC4)[nH]2)n1 [Example 36] with NLRP3 (Homo sapiens, UniProt Q96P20) as test system.
Completion: ≤ 5000 nM

Prompt: # return IC50 for CN1CCCC12CCN(S(=O)(=O)c1nnc(Nc3c(-c4ccnc(OC(F)F)c4)ccc4c3CCO4)[nH]1)CC2 [Example 210] , test system: NLRP3 (Homo sapiens, UniProt Q96P20)
Completion: ≤ 500 nM

Prompt: Name the recorded IC50 of CC(C)c1cc(F)cc(C(C)C)c1Nc1nnc(S(=O)(=O)N2CC3(CCN(C)C3)C2)[nH]1 [Example 242] , assay system NLRP3 (Homo sapiens, UniProt Q96P20).
Completion: ≤ 500 nM

Prompt: Provide NLRP3 (Homo sapiens, UniProt Q96P20) IC50 reading for CN(C)Cc1ccc(S(=O)(=O)c2nnc(Nc3c4c(cc5c3CCC5)CCC4)[nH]2)cc1 [Example 43] .
Completion: ≤ 1000 nM

Prompt: Report IC50 from NLRP3 (Homo sapiens, UniProt Q96P20) testing of COc1cc(-c2c(C)cc3c(c2Nc2nnc(S(=O)(=O)c4ccccc4)[nH]2)CCC3)ccn1 [Example 319]
Completion: ≤ 500 nM
